Test: Single dose PK in healthy subjects (Cohorts 1, 2, S1 and S2), plasma
Assay type: in vivo, human
Conditions: human, plasma, intravenous, 14 mg; 9 hr; read-out: Plasma concentration, Maximum
endpoint-label: concentration at 9 h (ng/mL)
Give bare numbers, in ng/mL.

GET /value?item= COC(=O)N1CCC[C@H](NS(C)(=O)=O)[C@@H]1CO[C@H]1CC[C@@H](c2ccccc2)CC1 &field=concentration at 9 h returns 34.2

###

Experiment: Single dose PK in healthy subjects (Cohorts 1, 2, S1 and S2), plasma
Type: in vivo, human
Settings: human, plasma, iv, 14 mg, 14 mg single IV infusion, healthy subjects; read-out: Vss Mean
endpoint-label: Vd
Reply with the number and its unit after it.

GET /value?item= COC(=O)N1CCC[C@H](NS(C)(=O)=O)[C@@H]1CO[C@H]1CC[C@@H](c2ccccc2)CC1 [Compound A] &field=Vd returns 77.1 L

// data source = patent US20220339143A1
